tested on: Human immunodeficiency virus 1; assay: Antiviral activity against wild type HIV-1 LAI infected in human MT4 cells assessed as inhibition of viral replication after 5 days by MTT assay; assay type: functional, organism-based; settings: Human immunodeficiency virus 1, LAI, MT4, 120 h
pIC50: −log10 of the molar value.
// reported pIC50 for each item listed
quantity: pIC50

> print(dat)
                                 smilescode                 systemundertest  measurement
1  N#Cc1cc(Cl)cc(Oc2c(F)c(CCc3ccncc3)[nH]c(=O)c2Br)c1  Human immunodeficiency virus 1         8.30
2  Cc1[nH]c(=O)c(Cl)c(Oc2cc(Cl)cc(C#N)c2)c1CCCc1ccncc1  Human immunodeficiency virus 1         8.70
3  Cc1[nH]c(=O)c(Cl)c(Oc2cc(Cl)cc(C#N)c2)c1CCOc1ccccc1  Human immunodeficiency virus 1         8.40
4  Cc1[nH]c(=O)c(Br)c(Oc2cc(Cl)cc(C#N)c2)c1Cc1ccccc1  Human immunodeficiency virus 1         8.22
5  N#Cc1cc(Cl)cc(Oc2c(COCc3ccncc3)c[nH]c(=O)c2Br)c1  Human immunodeficiency virus 1         8.15
